- MEASURED ON: Thymidine kinase 2, mitochondrial (Homo sapiens, UniProt O00142)
RECORDED ENDPOINT: pIC50
Answers are plain numbers, as −log10 of the molar value.

Answered examples (4):
SMILES DATA | REPORTED RESULT
Cc1cn(CCCCCCOC(c2ccccc2)(c2ccccc2)c2ccc(Cl)cc2)c(=O)[nH]c1=O | 5.72
Cc1cn(CCCCCCCCOC(c2ccccc2)(c2ccccc2)c2ccccc2)c(=O)[nH]c1=O | 4.35
Cc1cn(CCCCCOC(c2ccccc2)(c2ccccc2)c2ccccc2)c(=O)[nH]c1=O | 5.60
Cc1cn(CCCCCCOC(c2ccccc2)(c2ccccc2)c2ccncc2)c(=O)[nH]c1=O | 6.33

List pIC50 for every entry below, keeping the order given.
1. Cc1cn(CCCCCCOC(c2ccccc2)(c2ccccc2)c2cc[n+](C)cc2)c(=O)[nH]c1=O
2. CNC(=O)c1ccc(C(OCCCCCCn2cc(C)c(=O)[nH]c2=O)(c2ccccc2)c2ccccc2)cc1
3. Cc1cn(CCOCCOC(c2ccccc2)(c2ccccc2)c2ccccc2)c(=O)[nH]c1=O
4. Cc1cn(C/C=C\COC(c2ccccc2)(c2ccccc2)c2cc[n+](C)cc2)c(=O)[nH]c1=O
5. Cc1cn(C/C=C\COC(c2ccccc2)(c2ccccc2)c2ccncc2)c(=O)[nH]c1=O

Response given:
[4.64, 6.41, 5.01, 3.94, 5.74]

* * *

- ASSAY COMMENT: Cytotoxicity against human OST TK- cells expressing HSV1 TK in presence of 10 uM 1-[6-(triphenylmethoxy)hexyl]thymine
- Format: cell-based
RECORDED ENDPOINT: IC50 (nM)
Give bare numbers, in nM.

Consider the worked cases shown below.
COMPOUND | IC50, nM
Cc1cn([C@@H]2O[C@H](CO)[C@@H](O)[C@@H]2O)c(=O)[nH]c1=O | 150
Cc1cn(CCCCCCOC(c2ccccc2)(c2ccccc2)c2ccncc2)c(=O)[nH]c1=O | 370
Nc1nc2c(ncn2COC(CO)CO)c(=O)[nH]1 [GANCICLOVIR] | 41

Could you now consider this next compound?
Challenge: // query IC50 value for entry Cc1cn(CCCCCCOC(c2ccccc2)(c2ccccc2)c2ccccc2)c(=O)[nH]c1=O
Response given: 150

* * *

- ASSAY COMMENT: Cytotoxicity against human OST TK- cells expressing HSV1 TK in presence of 5 uM 1-[6-[1,1-(diphenyl)-1-(4-pyridyl)methoxy]hexyl]thymine
- Assay type: cell-based
Task for the reader: assign each of the following molecules its reported IC50.
Give the number first and the unit second.

Known results for molecules:
SMILES DATA | IC50
Cc1cn([C@@H]2O[C@H](CO)[C@@H](O)[C@@H]2O)c(=O)[nH]c1=O | 240 nM
Cc1cn(CCCCCCOC(c2ccccc2)(c2ccccc2)c2ccccc2)c(=O)[nH]c1=O | 33 nM
Nc1nc2c(ncn2COC(CO)CO)c(=O)[nH]1 | 81 nM

Moving on to the next molecule.
Challenge: Query: IC50; subject: Cc1cn(CCCCCCOC(c2ccccc2)(c2ccccc2)c2ccncc2)c(=O)[nH]c1=O
Response given: 81 nM

* * *

- MEASURED ON: Deoxynucleoside kinase (Drosophila melanogaster)
- Sequence (Q9XZT6 whole entry): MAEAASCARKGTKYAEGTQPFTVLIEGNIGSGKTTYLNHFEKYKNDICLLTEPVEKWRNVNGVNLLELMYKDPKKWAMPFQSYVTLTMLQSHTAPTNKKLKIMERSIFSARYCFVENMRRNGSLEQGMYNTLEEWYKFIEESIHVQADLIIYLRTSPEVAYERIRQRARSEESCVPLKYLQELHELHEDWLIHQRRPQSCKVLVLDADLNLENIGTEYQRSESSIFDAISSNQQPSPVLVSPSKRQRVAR
Consider the following molecules; for each one, report its pIC50.
Give bare numbers, as −log10 of the molar value.

SMILES DATA | MEASURED ON | pIC50
Cc1cn(CCCCCCCOC(c2ccccc2)(c2ccccc2)c2ccccc2)c(=O)[nH]c1=O | Deoxynucleoside kinase (Drosophila melanogaster) | 4.49
Cc1cn(C/C=C\COC(c2ccccc2)(c2ccccc2)c2cc[n+](C)cc2)c(=O)[nH]c1=O | Deoxynucleoside kinase (Drosophila melanogaster) | 3.84
Cc1cn(CCOCCOC(c2ccccc2)(c2ccccc2)c2ccncc2)c(=O)[nH]c1=O | Deoxynucleoside kinase (Drosophila melanogaster) | 4.46
Cc1cn(CCCCCCCCOC(c2ccccc2)(c2ccccc2)c2ccccc2)c(=O)[nH]c1=O | Deoxynucleoside kinase (Drosophila melanogaster) | 4.52
Cc1cn(C/C=C\COC(c2ccccc2)(c2ccccc2)c2ccccc2)c(=O)[nH]c1=O | Deoxynucleoside kinase (Drosophila melanogaster) | 5.48

State the recorded pIC50 for every item in the following list.
1. CNC(=O)c1ccc(C(OC/C=C\Cn2cc(C)c(=O)[nH]c2=O)(c2ccccc2)c2ccccc2)cc1
2. CNC(=O)c1ccc(C(OCCCCCCn2cc(C)c(=O)[nH]c2=O)(c2ccccc2)c2ccccc2)cc1

Response given:
5.80
5.46

* * *

- MEASURED ON: Thymidine kinase 2, mitochondrial (Homo sapiens)
- Sequence (O00142 whole entry): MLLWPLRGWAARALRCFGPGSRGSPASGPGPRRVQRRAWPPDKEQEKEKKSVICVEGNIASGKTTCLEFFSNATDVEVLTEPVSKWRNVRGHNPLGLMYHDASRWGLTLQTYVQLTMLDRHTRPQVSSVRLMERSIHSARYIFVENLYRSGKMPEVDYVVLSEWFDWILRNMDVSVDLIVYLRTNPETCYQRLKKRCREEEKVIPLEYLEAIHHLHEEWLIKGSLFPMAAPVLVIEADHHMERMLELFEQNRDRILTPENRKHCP
RECORDED ENDPOINT: pKi
Give bare numbers, as −log10 of the molar value.

Challenge: GET /values?readout=pKi&item= Cc1cn(CCCCCCOC(c2ccccc2)(c2ccccc2)c2ccncc2)c(=O)[nH]c1=O
Response given: 6.54

* * *

- MEASURED ON: Thymidine kinase (Human alphaherpesvirus 1)
- Sequence (Q9QNF7 whole entry): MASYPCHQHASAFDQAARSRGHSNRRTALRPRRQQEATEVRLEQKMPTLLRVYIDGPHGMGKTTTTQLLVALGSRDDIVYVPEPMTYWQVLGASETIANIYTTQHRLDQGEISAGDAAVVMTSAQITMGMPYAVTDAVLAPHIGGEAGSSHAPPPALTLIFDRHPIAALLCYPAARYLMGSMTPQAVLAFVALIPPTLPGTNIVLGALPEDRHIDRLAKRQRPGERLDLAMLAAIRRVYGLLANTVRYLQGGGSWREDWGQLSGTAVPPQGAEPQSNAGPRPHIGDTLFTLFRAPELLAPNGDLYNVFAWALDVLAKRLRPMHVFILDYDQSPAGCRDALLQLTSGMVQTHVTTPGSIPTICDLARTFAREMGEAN
I'd appreciate it if you could supply IC50 values for the items below.

Worked examples, 2 compounds total:
SMILES DATA | MEASURED ON | IC50
Cc1cn(C/C=C\COC(c2ccccc2)(c2ccccc2)c2cc[n+](C)cc2)c(=O)[nH]c1=O | Thymidine kinase (Human alphaherpesvirus 1) | > 500 µM
Cc1cn(CCCCCCCOC(c2ccccc2)(c2ccccc2)c2ccccc2)c(=O)[nH]c1=O | Thymidine kinase (Human alphaherpesvirus 1) | ≥ 50 µM

Here is another compound to look at.
Challenge: So what's the measured IC50 for this one? Cc1cn(CCCCCCCCOC(c2ccccc2)(c2ccccc2)c2ccccc2)c(=O)[nH]c1=O
Response given: > 500 µM

* * *

Target sequence: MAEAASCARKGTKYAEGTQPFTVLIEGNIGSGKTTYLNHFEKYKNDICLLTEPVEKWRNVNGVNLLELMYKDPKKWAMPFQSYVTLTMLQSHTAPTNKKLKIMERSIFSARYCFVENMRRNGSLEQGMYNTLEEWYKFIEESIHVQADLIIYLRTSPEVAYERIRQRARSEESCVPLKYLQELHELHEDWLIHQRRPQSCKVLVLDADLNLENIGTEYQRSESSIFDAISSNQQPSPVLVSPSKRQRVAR
RECORDED ENDPOINT: IC50 (µM)
Numbers only, in µM.

Record excerpt, results attached:
SMILES DATA | U | IC50
Cc1cn(CCCCCOC(c2ccccc2)(c2ccccc2)c2ccccc2)c(=O)[nH]c1=O | µM | 15
Cc1cn(CCCOC(c2ccccc2)(c2ccccc2)c2ccccc2)c(=O)[nH]c1=O | µM | 21

Challenge: Quick one: IC50 of Cc1cn(C/C=C\COC(c2ccccc2)(c2ccccc2)c2ccc(Cl)cc2)c(=O)[nH]c1=O ?
Response given: 5.7

Entry source: ChEMBL document CHEMBL1138227
